As shown below, each of these binders has a reported EC50 (read off the curve) value.
# target of assay: T1, Rhesus-ICAM1 (rhesus, UniProt Q5NKV6 28-480, limits assumed)
# T1 sequence (looked up): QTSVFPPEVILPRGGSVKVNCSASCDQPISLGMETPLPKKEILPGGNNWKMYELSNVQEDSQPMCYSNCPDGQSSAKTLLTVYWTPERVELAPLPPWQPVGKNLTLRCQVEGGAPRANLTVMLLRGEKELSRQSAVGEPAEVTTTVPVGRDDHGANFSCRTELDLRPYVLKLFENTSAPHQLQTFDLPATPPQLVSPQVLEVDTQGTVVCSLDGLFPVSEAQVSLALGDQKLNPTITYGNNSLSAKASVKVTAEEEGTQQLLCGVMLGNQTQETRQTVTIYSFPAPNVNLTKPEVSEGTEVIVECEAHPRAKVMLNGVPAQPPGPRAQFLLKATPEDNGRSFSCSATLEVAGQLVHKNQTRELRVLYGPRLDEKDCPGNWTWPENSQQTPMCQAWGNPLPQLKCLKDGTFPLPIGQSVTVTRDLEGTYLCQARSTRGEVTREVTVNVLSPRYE
# test method notes: ELISA: plate coated with 1 ug/ml recombinant rhesus ICAM1 ECD, serially diluted antibody, OD450

Worked examples, 2 binders total:
[[record]]
binder = "8B12 (antibody, human IgG1, kappa, V domains shown, Rabbit-human chimeric anti-ICAM1: rabbit VH and VL on human IgG1 and kappa constant regions) VH: QSVEESGGGLVKPGGTLTLTCTVSGFSLSTHAMGWVRQAPGKGLEYIGIIGSSDRTYYASWAKGRFTISKTSTTVDLKITSPTTEDTATYFCVRDPYDSFDDGYRLWGPGTLVTVSS VL: AYDMTQTPASVEVAVGGTVTIKCQASQSIYSYLSWYQQKPGQRPKFLIYDASKVASGVPSRFKGSGSGTEFTLTISAVQSDDAATYYCQQAYSSSNVDNAFGGGTEVMVKR"
result = "~0.04 nM"

[[record]]
binder = "Anti-ICAM1 G12 (antibody, human IgG1, lambda, V domains shown, Human IgG1 with a lambda light chain; also called anti-ICAM1 clone G12) VH: QVQLQESGGGLVQPGGSLRLSCAASGFTFSSYAMSWVRQAPGKGLEWVSAISGSGGSTYYADSVKGRFTISRDNSKNTLYLQMSSLRAEDTAFYYCANSAYTGGWYDYWGHGTLVTVSS VL: ASELTQDPAVSVALGQTVKITCQGDSLRTYYASWYQQRPGQAPVLVIYGENSRPSGIPDRFSGSSSGNTASLTITGAQAEDEADYYCNSRDSSGNHLRVFGGGTKLTVLG"
result = "~0.04 nM"


Let us examine a further case.
Inquiry: Which measured EC50 (read off the curve) value corresponds to 8E5 (antibody, human IgG1, kappa, V domains shown, Rabbit-human chimeric anti-ICAM1: rabbit VH and VL on human IgG1 and kappa constant regions) VH: QSLEESGGRLVTPGTPLTLTCTVSGFSLSNYAMNWVRQAPGKGLEWIGYISTRGSAYYASWAKGRFTISKTSTTVDLKMTSPTTEDTATYFCARGDLVGGGYIRGSFDPWGPGTLVTVSS VL: AQVLTQTPSPVSAAVGGTVTINCQSSQSVVSDKLLSWFQQKPGQPPKLLIYGASTLASGVPSRFKGSGSGTQFTLTISDVQSDDAATYYCAGAYSTDSDIRAFGGGTEVVVKR ?
Reply text: ~0.04 nM
